Data provenance is PubChem BioAssay AID1963826.

Here, each record is paired with measured viability, T/C data.
test system: 926638-142-R-J1-PDC complex spheroid viability; experiment: Anticancer human tumor 926638-142-R-J1-PDC patient-derived endometrial carcinoma cell line growth inhibition [POLQ]; settings: second compound 0.316 µM; first compound 1 µM; active compounds read low;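 further: spheroids exposed to drugs for one week before readout; percent viability relative to DMSO vehicle control wells set as 100%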
quantity: viability, T/C

compound="O=C(c1cc(Cc2n[nH]c(=O)c3ccccc23)ccc1F)N1CCN(C(=O)C2CC2)CC1 + Cc1cccc(N(C)C(=O)C2C(O)CCN2c2nc(C)cc(C(F)(F)F)c2C#N)c1" experimental_target="926638-142-R-J1-PDC complex spheroid viability" quantity="viability, T/C" value_reported=85.9%
compound="CCc1c2c(nc3ccc(O)cc13)-c1cc3c(c(=O)n1C2)COC(=O)[C@]3(O)CC + COC1C(OC(N)=O)C(O)C(Oc2ccc3c(O)c(NC(=O)c4ccc(O)c(CC=C(C)C)c4)c(=O)oc3c2C)OC1(C)C" experimental_target="926638-142-R-J1-PDC complex spheroid viability" quantity="viability, T/C" value_reported=4.49%
compound="COc1cccc2c1C(=O)c1c(O)c3c(c(O)c1C2=O)CC(O)(C(=O)CO)CC3OC1CC(N)C(O)C(C)O1 (stereo not given) + Nc1ccc(C#CCN(C(=O)Cc2ncc(C(F)(F)F)cc2C(F)(F)F)c2ccc(F)cc2)nn1" experimental_target="926638-142-R-J1-PDC complex spheroid viability" quantity="viability, T/C" value_reported=7.2%
compound="COc1cc2cc(C(=O)CCC(=O)O)sc2cc1OC + Nc1ccc(C#CCN(C(=O)Cc2ncc(C(F)(F)F)cc2C(F)(F)F)c2ccc(F)cc2)nn1" experimental_target="926638-142-R-J1-PDC complex spheroid viability" quantity="viability, T/C" value_reported=102%
compound="C=CCn1c(=O)c2cnc(Nc3ccc(N4CCN(C)CC4)cc3)nc2n1-c1cccc(C(C)(C)O)n1 + Cc1cccc(N(C)C(=O)C2C(O)CCN2c2nc(C)cc(C(F)(F)F)c2C#N)c1" experimental_target="926638-142-R-J1-PDC complex spheroid viability" quantity="viability, T/C" value_reported=37%
